Reported IC50, AMSH (Homo sapiens (Human), UniProt O95630).
MEASURED_METRIC: IC50 (nM)

smiles_str=O=C(NCc1ccccn1)c1cnc2c(SSc3cccc4cc(C(=O)NCc5ccccn5)cnc34)cccc2c1 unit_of_measure=nM val=16700
smiles_str=O=C(NCc1ccccc1)c1cnc2c(SSc3cccc4cc(C(=O)NCc5ccccc5)cnc34)cccc2c1 unit_of_measure=nM val=15000
smiles_str=O=C(NCc1cccs1)c1cnc2c(SSc3cccc4cc(C(=O)NCc5cccs5)cnc34)cccc2c1 unit_of_measure=nM val=1300
smiles_str=CNC(=O)c1cnc2c(SSc3cccc4cc(C(=O)NC)cnc34)cccc2c1 unit_of_measure=nM val=4800
smiles_str=O=C(NCc1ccncc1)c1cnc2c(SSc3cccc4cc(C(=O)NCc5ccncc5)cnc34)cccc2c1 unit_of_measure=nM val=500
smiles_str=O=C(NCc1cccnc1)c1cnc2c(SSc3cccc4cc(C(=O)NCc5cccnc5)cnc34)cccc2c1 unit_of_measure=nM val=3520
smiles_str=O=C(NCc1ccc(C(F)(F)F)cc1)c1cnc2c(SSc3cccc4cc(C(=O)NCc5ccc(C(F)(F)F)cc5)cnc34)cccc2c1 unit_of_measure=nM val=3400
smiles_str=NC(=O)c1cnc2c(SSc3cccc4cc(C(N)=O)cnc34)cccc2c1 unit_of_measure=nM val=1200
smiles_str=O=C(NCc1nccs1)c1cnc2c(SSc3cccc4cc(C(=O)NCc5nccs5)cnc34)cccc2c1 unit_of_measure=nM val=7800
smiles_str=O=C(NCc1ccc(F)cc1)c1cnc2c(SSc3cccc4cc(C(=O)NCc5ccc(F)cc5)cnc34)cccc2c1 unit_of_measure=nM val=850
smiles_str=O=C(NCCc1ccco1)c1ccnc2c(SSc3cccc4c(C(=O)NCCc5ccco5)ccnc34)cccc12 unit_of_measure=nM val=2900
smiles_str=O=C(NCCc1ccco1)c1cnc2c(SSc3cccc4cc(C(=O)NCCc5ccco5)cnc34)cccc2c1 unit_of_measure=nM val=1700
smiles_str=O=C(Nc1nccs1)c1cnc2c(SSc3cccc4cc(C(=O)Nc5nccs5)cnc34)cccc2c1 unit_of_measure=nM val=3300
smiles_str=O=C(NCCN1CCOCC1)c1cnc2c(SSc3cccc4cc(C(=O)NCCN5CCOCC5)cnc34)cccc2c1 unit_of_measure=nM val=25400
smiles_str=O=C(CCCC[C@@H]1SC[C@@H]2NC(=O)N[C@@H]21)NCCOCCOCCOCCNC(=O)c1cnc2c(S)cccc2c1 unit_of_measure=nM val=400
smiles_str=COc1ccc(CNC(=O)c2cnc3c(SSc4cccc5cc(C(=O)NCc6ccc(OC)cc6)cnc45)cccc3c2)cc1 unit_of_measure=nM val=600
smiles_str=O=C(NCCc1cccs1)c1ccnc2c(SSc3cccc4c(C(=O)NCCc5cccs5)ccnc34)cccc12 unit_of_measure=nM val=1000

* * *

Entries and their pIC50
target: Csn5 (Homo sapiens (Human)); test: Csn5 activity assay (fluorescence polarization, SCF^skp2-Nedd8OG, COP9 Signalosome Complex); details: Table 2
pIC50: −log10 of the molar value.
MEASURED_METRIC: pIC50

compound=O=C(NCCc1ccco1)c1cnc2c(SSc3cccc4cc(C(=O)NCCc5ccco5)cnc34)cccc2c1 measured_metric=pIC50 censoring_qualifier== val=5.16
compound=O=C(NCc1ccco1)c1cnc2c(SSc3cccc4cc(C(=O)NCc5ccco5)cnc34)cccc2c1 measured_metric=pIC50 censoring_qualifier== val=6.70
compound=CNC(=O)c1cnc2c(SSc3cccc4cc(C(=O)NC)cnc34)cccc2c1 measured_metric=pIC50 censoring_qualifier== val=4.17
compound=O=C(NCCc1cccs1)c1ccnc2c(SSc3cccc4c(C(=O)NCCc5cccs5)ccnc34)cccc12 measured_metric=pIC50 censoring_qualifier== val=5.14
compound=O=C(NCc1ccccn1)c1cnc2c(SSc3cccc4cc(C(=O)NCc5ccccn5)cnc34)cccc2c1 measured_metric=pIC50 censoring_qualifier== val=4.25
compound=O=C(NCCc1cccs1)c1cnc2c(SSc3cccc4cc(C(=O)NCCc5cccs5)cnc34)cccc2c1 measured_metric=pIC50 censoring_qualifier== val=5.40
compound=O=C(NCc1ccccc1)c1cnc2c(SSc3cccc4cc(C(=O)NCc5ccccc5)cnc34)cccc2c1 measured_metric=pIC50 censoring_qualifier== val=4.96
compound=O=C(NCc1cccnc1)c1cnc2c(SSc3cccc4cc(C(=O)NCc5cccnc5)cnc34)cccc2c1 measured_metric=pIC50 censoring_qualifier== val=3.89
compound=COc1ccc(CNC(=O)c2cnc3c(SSc4cccc5cc(C(=O)NCc6ccc(OC)cc6)cnc45)cccc3c2)cc1 measured_metric=pIC50 censoring_qualifier== val=6.30
compound=O=C(NCc1ccc(F)cc1)c1cnc2c(SSc3cccc4cc(C(=O)NCc5ccc(F)cc5)cnc34)cccc2c1 measured_metric=pIC50 censoring_qualifier== val=4.74
compound=O=C(NCc1ccc2c(c1)OCO2)c1cnc2c(SSc3cccc4cc(C(=O)NCc5ccc6c(c5)OCO6)cnc34)cccc2c1 measured_metric=pIC50 censoring_qualifier== val=5.15
compound=O=C(NCCc1ccco1)c1ccnc2c(SSc3cccc4c(C(=O)NCCc5ccco5)ccnc34)cccc12 measured_metric=pIC50 censoring_qualifier== val=5.10
compound="O=C(NCC1CCCO1)c1cnc2c(SSc3cccc4cc(C(=O)NCC5CCCO5)cnc34)cccc2c1 (stereo not drawn)" measured_metric=pIC50 censoring_qualifier== val=4.38
compound=O=C(Nc1nccs1)c1cnc2c(SSc3cccc4cc(C(=O)Nc5nccs5)cnc34)cccc2c1 measured_metric=pIC50 censoring_qualifier== val=4.49
compound=O=C(NCc1ccc(C(F)(F)F)cc1)c1cnc2c(SSc3cccc4cc(C(=O)NCc5ccc(C(F)(F)F)cc5)cnc34)cccc2c1 measured_metric=pIC50 censoring_qualifier=< val=4.00

meta.source: patent US10005735B2
